# PBM E-score listing for each entry below
Biological target: Yap3 (UniProt P38749)
Sequence: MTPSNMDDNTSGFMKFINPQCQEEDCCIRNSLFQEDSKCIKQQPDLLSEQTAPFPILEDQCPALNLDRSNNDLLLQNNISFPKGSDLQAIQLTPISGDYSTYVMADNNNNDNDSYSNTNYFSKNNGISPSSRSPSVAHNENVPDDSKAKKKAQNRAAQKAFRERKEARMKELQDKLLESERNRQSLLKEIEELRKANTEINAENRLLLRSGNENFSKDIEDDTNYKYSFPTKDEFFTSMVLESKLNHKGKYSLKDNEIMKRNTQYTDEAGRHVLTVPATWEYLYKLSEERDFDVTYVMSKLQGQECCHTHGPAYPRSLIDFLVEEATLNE
Experiment: PBM E-score (8-mer binding enrichment) (E-score (-0.5 to 0.5)); higher = stronger / more preferred TF binding
Settings: protein concentration: 100 nM; construct: GST-full length
Over roughly 33,000 sequences, “E-score (-0.5 to 0.5)” has its median near -0.0034; the highest 2% begin near 0.25. This excerpt belongs to a sample that is enriched for the highest values.
MEASURED PARAMETER: PBM E-score

In [3]: df
Out[3]:
    residue_sequence  measured_parameter  measured_value
 0          CATTATCG         PBM E-score           0.129
 1          CGGCGTAC         PBM E-score           -0.15
 2          CTATGATC         PBM E-score         -0.0167
 3          AATGGCTA         PBM E-score           0.169
 4          AAACCTCG         PBM E-score          -0.132
 5          AGTTGTGA         PBM E-score           0.108
 6          ACTATTAC         PBM E-score           0.149
 7          CAGCCCCC         PBM E-score          -0.384
 8          CATATATA         PBM E-score           0.227
 9          AGCAGAGA         PBM E-score         -0.0117
10          ACGTATTA         PBM E-score           0.282
11          ACGCACGT         PBM E-score          -0.206
12          ACTATTAG         PBM E-score           0.136
13          ATAAAAAG         PBM E-score           0.261
14          CCTCAGGC         PBM E-score          -0.249
15          GATATATA         PBM E-score           0.271
16          CGTTGAAC         PBM E-score           -0.07
17          AATTATCG         PBM E-score           0.267
18          ATATGATG         PBM E-score           0.171
19          TCTCAGCA         PBM E-score          0.0139
20          CGTTGTGA         PBM E-score         -0.0712
21          AGATGATA         PBM E-score            0.08
22          ATTATTAG         PBM E-score           0.259
23          CTTATTCA         PBM E-score           0.106
24          AATGCATA         PBM E-score          0.0923
25          ATAAAAGG         PBM E-score          -0.011
26          AATTATCT         PBM E-score           0.237
27          CATTAAGA         PBM E-score          0.0516
28          AGCTGTAA         PBM E-score          0.0402
29          ATAAAACG         PBM E-score           0.206
30          ATCCCATA         PBM E-score          -0.106
31          CATTATCA         PBM E-score           0.161
32          CTGTATTC         PBM E-score           0.128
33          GATATATC         PBM E-score           0.133
34          AGACTGTC         PBM E-score          -0.163
35          CTGGGCGC         PBM E-score          -0.229
36          CTGTATTA         PBM E-score           0.258
37          ATAAAATC         PBM E-score           0.207
38          TATATACA         PBM E-score           0.226
39          CAAGCTAG         PBM E-score         -0.0475
40          CCGGCCAG         PBM E-score          -0.181
41          TGAGCTCA         PBM E-score          0.0969
42          ATAAAAAA         PBM E-score           0.187
43          ACCTAAAC         PBM E-score           0.122
44          GAACGCAC         PBM E-score          0.0357
45          ATAAGCAA         PBM E-score           0.137
46          CTTATTAC         PBM E-score           0.251
47          GCTTCTCA         PBM E-score         -0.0894
48          ACGCACGA         PBM E-score           0.131
49          CTCCTTCC         PBM E-score          -0.171
50          GATATGGA         PBM E-score           0.263
51          GTCGCACA         PBM E-score         -0.0581
52          ATTATTCA         PBM E-score           0.277
53          CTGTAGTA         PBM E-score           0.281
54          AGAACGCC         PBM E-score          -0.109
55          AGATCCTA         PBM E-score          0.0833
56          AATATGGA         PBM E-score           0.123
57          AACTGCTA         PBM E-score         0.00439
58          TATGGTCA         PBM E-score          0.0184
59          CCAGTGTC         PBM E-score            -0.1
60          ATGTTGCA         PBM E-score          0.0661
61          CAGCTGCC         PBM E-score         -0.0739
62          AGCACACT         PBM E-score          0.0288
63          ACTATTCG         PBM E-score           0.231
64          GCCCACAA         PBM E-score          -0.141
65          AACAGTCG         PBM E-score         -0.0471
66          GTGTATGA         PBM E-score          0.0534
67          CGATGGGC         PBM E-score           -0.18
68          TATGCGAA         PBM E-score          0.0891
69          AATGGTCA         PBM E-score            0.26
70          CATCCTTA         PBM E-score        -0.00117
71          TACCACAA         PBM E-score           0.123
72          GTGAGCTA         PBM E-score          0.0321
73          AAAAAATG         PBM E-score           0.209
